system_name: α1b-AR (Homo sapiens)
Construct: expressed in transfected cells; host or cells: COS-7
Sequence (P35368 whole entry): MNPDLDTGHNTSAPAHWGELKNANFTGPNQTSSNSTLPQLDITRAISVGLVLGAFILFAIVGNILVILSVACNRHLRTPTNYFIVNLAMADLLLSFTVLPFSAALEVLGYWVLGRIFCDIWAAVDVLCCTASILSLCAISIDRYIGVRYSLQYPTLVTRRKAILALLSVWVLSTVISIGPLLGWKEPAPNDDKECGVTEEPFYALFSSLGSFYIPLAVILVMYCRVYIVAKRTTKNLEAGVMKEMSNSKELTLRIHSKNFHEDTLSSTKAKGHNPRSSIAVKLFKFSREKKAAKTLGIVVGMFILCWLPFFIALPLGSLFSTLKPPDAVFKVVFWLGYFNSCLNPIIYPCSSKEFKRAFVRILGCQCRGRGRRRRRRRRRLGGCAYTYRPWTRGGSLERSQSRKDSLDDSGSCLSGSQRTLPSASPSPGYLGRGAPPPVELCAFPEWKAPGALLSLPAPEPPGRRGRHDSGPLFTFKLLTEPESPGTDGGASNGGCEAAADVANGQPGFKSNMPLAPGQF
protocol: α1-Adrenergic receptor radio-ligand (125I-HEAT) binding assay, α1b subtype
test_settings: COS-7 cell membranes transfected with α1b-AR, 125I-HEAT 50 pM; read-out: Receptor Binding, Ki α1b-AR
pKi: −log10 of the molar value.
quantity_name: pKi

INSERT INTO assay_data (smiles_representation, system_name, observed_value) VALUES
  ('CC(C)Oc1ccccc1N1CCN(Cc2cccc(C(=O)N3CCc4ccc(NC(=O)Nc5c(F)cccc5F)cc43)c2)CC1', 'α1b-AR (Homo sapiens)', 6.68);

[I] CC(C)Oc1ccccc1N1CCN(Cc2cccc(C(=O)N3CCc4ccc(NC(=S)Nc5ccccc5)cc43)c2)CC1
[II] COc1cccc(OC)c1CNc1ccc2c(c1)CCN2C(=O)c1cccc(CN2CCN(c3ccccc3OC(C)C)CC2)c1
Could you tell me which of I and II has the lower pKi reading? Pick one; state its label.
II
(II: 5.89, I: 6.52)

----------
system_name: α1d-AR (Homo sapiens)
Construct: expressed in transfected cells; host or cells: COS-7
Sequence (P25100 1-572): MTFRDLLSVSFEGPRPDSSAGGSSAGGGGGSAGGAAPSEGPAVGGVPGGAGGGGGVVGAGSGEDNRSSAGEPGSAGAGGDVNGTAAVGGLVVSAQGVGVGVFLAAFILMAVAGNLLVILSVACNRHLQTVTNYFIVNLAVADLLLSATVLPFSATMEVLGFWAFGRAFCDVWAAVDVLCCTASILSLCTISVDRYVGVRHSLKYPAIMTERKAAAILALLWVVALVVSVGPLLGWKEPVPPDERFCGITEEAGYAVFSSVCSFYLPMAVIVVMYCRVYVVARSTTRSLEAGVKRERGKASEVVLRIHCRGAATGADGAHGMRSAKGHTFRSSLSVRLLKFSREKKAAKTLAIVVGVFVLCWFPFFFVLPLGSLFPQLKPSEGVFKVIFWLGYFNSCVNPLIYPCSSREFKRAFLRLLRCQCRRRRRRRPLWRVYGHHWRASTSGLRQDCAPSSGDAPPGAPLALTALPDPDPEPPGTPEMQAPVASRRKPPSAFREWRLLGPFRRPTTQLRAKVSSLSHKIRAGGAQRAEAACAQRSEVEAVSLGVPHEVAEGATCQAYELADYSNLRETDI
protocol: α1-Adrenergic receptor radio-ligand (125I-HEAT) binding assay, α1d subtype
test_settings: COS-7 cell membranes transfected with α1d-AR, 125I-HEAT 50 pM; read-out: Receptor Binding, Ki α1d-AR
quantity_name: Ki (µM)

INSERT INTO results (molecule, observed_value) VALUES
  ('CC(C)Oc1ccccc1N1CCN(Cc2cccc(C(=O)N3CCc4cc(NS(N)(=O)=O)ccc43)c2)CC1 [Cpd 17]', 0.0076);

[1] COc1ccccc1C1CCN(Cc2ccc(C(=O)N3CCc4ccc([N+](=O)[O-])cc43)cc2)CC1 [Cpd 35]
[2] CCCCCCCCc1ccc(CNc2ccc3c(c2)CCN3C(=O)c2cccc(CN3CCN(c4ccccc4OC(C)C)CC3)c2)cc1 [Cpd 23]
[3] COc1cccc(OC)c1CNc1ccc2c(c1)N(C(=O)c1cccc(CN3CCN(c4ccccc4OC(C)C)CC3)c1)CC2 [Cpd 7]
Write the entries in order, lowest recorded Ki first. Return value: ordered labels per request.
1, 3, 2
(1: 0.0085 µM, 3: 0.016 µM, 2: 0.317 µM)
